Tested on: NY
Assay: cells;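 note: growth inhibition of NY cells, read out by a cell viability assay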
Type: functional, cell-based
Settings: Homo sapiens
Description: SANGER: Inhibition of human NY cell growth in a cell viability assay.
pIC50: −log10 of the molar value.
// values below are reported pIC50
measure-name: pIC50

{"cpd-smiles": "CN(NC(=O)CC(=O)NN(C)C(=S)c1ccccc1)C(=S)c1ccccc1", "system-under-test": "NY", "measurement-qualifier": "=", "result": 7.42}
{"cpd-smiles": "Cc1ccc(C(=O)Nc2ccc(CN3CCN(C)CC3)c(C(F)(F)F)c2)cc1C#Cc1cnc2cccnn12", "system-under-test": "NY", "measurement-qualifier": "=", "result": 6.71}
{"cpd-smiles": "NC(=O)c1ccc(N(C(N)=O)c2c(F)cccc2F)nc1-c1ccc(F)cc1F", "system-under-test": "NY", "measurement-qualifier": "<", "result": 5.70}
{"cpd-smiles": "NC1(c2ccc(-c3nc4ccn5c(=O)[nH]nc5c4cc3-c3ccccc3)cc2)CCC1", "system-under-test": "NY", "measurement-qualifier": "<", "result": 5.40}
